MEASUREMENT TARGET: LRRK2 G2019S (Homo sapiens, UniProt Q5S007, G2019S)
Sequence (Q5S007 whole entry G2019S): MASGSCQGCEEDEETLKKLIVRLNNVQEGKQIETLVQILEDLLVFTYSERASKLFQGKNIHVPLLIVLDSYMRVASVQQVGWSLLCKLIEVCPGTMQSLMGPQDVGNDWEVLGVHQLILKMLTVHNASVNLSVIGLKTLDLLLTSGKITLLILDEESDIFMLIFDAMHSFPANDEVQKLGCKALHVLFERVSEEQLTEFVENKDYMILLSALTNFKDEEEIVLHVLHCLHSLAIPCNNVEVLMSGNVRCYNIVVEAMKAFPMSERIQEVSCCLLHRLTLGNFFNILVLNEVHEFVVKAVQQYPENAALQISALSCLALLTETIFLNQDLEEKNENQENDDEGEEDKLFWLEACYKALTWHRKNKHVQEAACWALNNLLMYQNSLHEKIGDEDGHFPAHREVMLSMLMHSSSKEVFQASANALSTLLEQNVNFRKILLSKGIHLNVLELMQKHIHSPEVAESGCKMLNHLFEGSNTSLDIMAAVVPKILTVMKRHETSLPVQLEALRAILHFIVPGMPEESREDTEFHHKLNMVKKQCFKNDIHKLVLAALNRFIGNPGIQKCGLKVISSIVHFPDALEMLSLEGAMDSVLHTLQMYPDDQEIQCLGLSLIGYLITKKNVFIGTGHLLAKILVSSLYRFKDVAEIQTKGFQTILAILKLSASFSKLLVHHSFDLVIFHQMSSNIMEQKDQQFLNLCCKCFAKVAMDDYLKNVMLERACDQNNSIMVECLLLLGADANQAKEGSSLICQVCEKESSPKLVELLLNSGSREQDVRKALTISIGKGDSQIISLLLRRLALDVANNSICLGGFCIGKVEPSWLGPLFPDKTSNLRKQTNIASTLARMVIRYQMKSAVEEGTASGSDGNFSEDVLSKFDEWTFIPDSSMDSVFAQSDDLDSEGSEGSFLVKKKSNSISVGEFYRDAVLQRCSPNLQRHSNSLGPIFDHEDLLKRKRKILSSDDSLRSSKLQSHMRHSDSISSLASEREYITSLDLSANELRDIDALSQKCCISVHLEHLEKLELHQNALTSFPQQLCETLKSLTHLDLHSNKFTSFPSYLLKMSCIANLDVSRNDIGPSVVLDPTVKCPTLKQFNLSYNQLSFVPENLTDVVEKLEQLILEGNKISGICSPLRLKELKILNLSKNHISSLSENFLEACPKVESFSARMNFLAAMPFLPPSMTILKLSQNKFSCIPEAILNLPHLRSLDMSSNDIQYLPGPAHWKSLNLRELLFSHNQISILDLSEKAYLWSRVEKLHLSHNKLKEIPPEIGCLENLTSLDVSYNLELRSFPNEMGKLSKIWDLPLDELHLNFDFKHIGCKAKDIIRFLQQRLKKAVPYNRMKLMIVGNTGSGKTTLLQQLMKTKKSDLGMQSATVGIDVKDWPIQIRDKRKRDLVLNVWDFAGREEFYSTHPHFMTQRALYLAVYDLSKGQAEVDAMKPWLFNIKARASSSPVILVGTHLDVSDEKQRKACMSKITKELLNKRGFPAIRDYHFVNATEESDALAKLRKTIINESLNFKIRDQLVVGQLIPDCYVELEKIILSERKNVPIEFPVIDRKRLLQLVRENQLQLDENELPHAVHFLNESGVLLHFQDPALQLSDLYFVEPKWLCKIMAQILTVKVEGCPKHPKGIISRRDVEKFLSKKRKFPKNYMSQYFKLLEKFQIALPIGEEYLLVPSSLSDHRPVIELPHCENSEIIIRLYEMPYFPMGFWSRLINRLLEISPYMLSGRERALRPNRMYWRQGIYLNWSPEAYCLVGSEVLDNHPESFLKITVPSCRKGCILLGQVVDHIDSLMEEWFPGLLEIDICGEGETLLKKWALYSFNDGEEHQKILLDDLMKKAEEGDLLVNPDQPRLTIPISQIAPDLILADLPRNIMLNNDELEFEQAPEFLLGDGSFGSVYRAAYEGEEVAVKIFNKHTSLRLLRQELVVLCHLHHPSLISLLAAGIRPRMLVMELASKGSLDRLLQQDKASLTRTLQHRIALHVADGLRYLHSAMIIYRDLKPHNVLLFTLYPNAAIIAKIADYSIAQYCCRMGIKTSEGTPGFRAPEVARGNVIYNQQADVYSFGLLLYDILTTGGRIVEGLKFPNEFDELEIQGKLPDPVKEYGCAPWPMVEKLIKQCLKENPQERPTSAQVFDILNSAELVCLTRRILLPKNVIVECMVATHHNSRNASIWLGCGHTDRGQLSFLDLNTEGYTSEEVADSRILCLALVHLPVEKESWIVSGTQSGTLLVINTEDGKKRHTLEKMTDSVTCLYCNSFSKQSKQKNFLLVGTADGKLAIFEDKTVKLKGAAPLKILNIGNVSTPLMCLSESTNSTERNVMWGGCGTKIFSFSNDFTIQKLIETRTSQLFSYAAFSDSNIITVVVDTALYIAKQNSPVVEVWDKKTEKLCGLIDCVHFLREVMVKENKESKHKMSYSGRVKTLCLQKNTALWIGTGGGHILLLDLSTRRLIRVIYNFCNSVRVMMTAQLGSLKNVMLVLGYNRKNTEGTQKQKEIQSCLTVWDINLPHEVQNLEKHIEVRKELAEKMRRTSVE
ASSAY INFO: LRRK2 G2019S Km ATP LanthaScreen assay
Assay type: biochemical
SETUP CONDITIONS: read-out: LRRK2 pIC50 (converted)
Each record here notes measured IC50.
PROPERTY NAME: IC50 (pM)

{"COMPOUND": "Cc1cc2cnc(NC(=O)C3CC3c3ccccn3)cc2cc1C1CCN(C2(C)CCOC2)CC1 (single isomer, unassigned) [Ex-16.9]", "UNIT ANNOTATION": "pM", "OBS VALUE": 132}
{"COMPOUND": "CC(C)(O)C1CC(C(=O)Nc2cc3cc(C4(C#N)CC45CC5)ccc3cn2)C1 (single isomer, unassigned)", "UNIT ANNOTATION": "pM", "OBS VALUE": 3390}
{"COMPOUND": "CC1CC1(C#N)c1ccc2cnc(NC(=O)C3CC3)cc2c1 (single isomer, unassigned) [Ex-18.6]", "UNIT ANNOTATION": "pM", "OBS VALUE": 60300}
{"COMPOUND": "CC1(N2CCC(c3cc4cc(NC(=O)C5CC5c5ccccn5)ncc4cc3F)CC2)COCC1O (single isomer, unassigned)", "UNIT ANNOTATION": "pM", "OBS VALUE": 81.3}
{"COMPOUND": "N#CC1(c2ccc3cnc(NC(=O)C4CC45CC5)cc3c2)CC12CC2 (single isomer, unassigned) [Ex-2.1]", "UNIT ANNOTATION": "pM", "OBS VALUE": 871}
{"COMPOUND": "CC1(N2CCC(c3cc4cc(NC(=O)C5CCCOC5)ncc4cc3Cl)CC2)COCC1O (stereo not shown)", "UNIT ANNOTATION": "pM", "OBS VALUE": 81.3}
{"COMPOUND": "CC1(N2CCC(c3cc4cc(NC(=O)C5C6CCOCC65)ncc4cc3Cl)CC2)COCC1F (single isomer, unassigned) [Ex-6.43]", "UNIT ANNOTATION": "pM", "OBS VALUE": 2820}

----------
MEASUREMENT TARGET: LRRK2 G2019S (Homo sapiens, UniProt Q5S007, G2019S)
ASSAY INFO: LRRK2 G2019S Km ATP LanthaScreen assay
Type: biochemical
SETUP CONDITIONS: read-out: LRRK2 pIC50 (converted)

{"COMPOUND": "Cn1ncc(C2CC2C(=O)Nc2cc3cc(C4(C#N)CC45CC5)ccc3cn2)c1Cl (stereo not shown) [Ex-2.79]", "MEASUREMENT TARGET": "LRRK2 G2019S (Homo sapiens, UniProt Q5S007, G2019S)", "IC50, nM": 34.7}
{"COMPOUND": "N#CC1(c2ccc3cnc(NC(=O)C4CC45CCOC5)cc3c2)CC12CC2 (stereo not shown) [Ex-2.66]", "MEASUREMENT TARGET": "LRRK2 G2019S (Homo sapiens, UniProt Q5S007, G2019S)", "IC50, nM": 14.5}
{"COMPOUND": "CC1(N2CCC(c3cc4cc(NC(=O)C5CC5c5cccnc5)ncc4cc3Cl)CC2)COCC1O (single isomer, unassigned) [Ex-4.42]", "MEASUREMENT TARGET": "LRRK2 G2019S (Homo sapiens, UniProt Q5S007, G2019S)", "IC50, nM": 200}
{"COMPOUND": "N#CC1(c2ccc3cnc(NC(=O)C4CC(OC(F)F)C4)cc3c2)CC12CC2 (single isomer, unassigned) [Ex-2.6]", "MEASUREMENT TARGET": "LRRK2 G2019S (Homo sapiens, UniProt Q5S007, G2019S)", "IC50, nM": 9.12}
{"COMPOUND": "O=C(Nc1cc2cc(C3CCN(C4COC4)CC3)c(Cl)cc2cn1)C1CC12CCOCC2 (single isomer, unassigned) [Ex-9.8]", "MEASUREMENT TARGET": "LRRK2 G2019S (Homo sapiens, UniProt Q5S007, G2019S)", "IC50, nM": 19.1}
{"COMPOUND": "N#CC1(c2ccc3cnc(NC(=O)C4CC4c4ccccn4)cc3c2)CC12CC2 (stereo not shown) [Ex-2.38]", "MEASUREMENT TARGET": "LRRK2 G2019S (Homo sapiens, UniProt Q5S007, G2019S)", "IC50, nM": 2.04}
{"COMPOUND": "CC1(C)CC(C(=O)Nc2cc3cc(C4CCC(N5CCC(F)C5)CC4)c(Cl)cc3cn2)CCO1 (single isomer, unassigned) [Ex-5.16]", "MEASUREMENT TARGET": "LRRK2 G2019S (Homo sapiens, UniProt Q5S007, G2019S)", "IC50, nM": 389}
